Parameter 'readout' = IC50; parameter 'system' = UniProt:O76083.
Sequence (O76083 whole entry): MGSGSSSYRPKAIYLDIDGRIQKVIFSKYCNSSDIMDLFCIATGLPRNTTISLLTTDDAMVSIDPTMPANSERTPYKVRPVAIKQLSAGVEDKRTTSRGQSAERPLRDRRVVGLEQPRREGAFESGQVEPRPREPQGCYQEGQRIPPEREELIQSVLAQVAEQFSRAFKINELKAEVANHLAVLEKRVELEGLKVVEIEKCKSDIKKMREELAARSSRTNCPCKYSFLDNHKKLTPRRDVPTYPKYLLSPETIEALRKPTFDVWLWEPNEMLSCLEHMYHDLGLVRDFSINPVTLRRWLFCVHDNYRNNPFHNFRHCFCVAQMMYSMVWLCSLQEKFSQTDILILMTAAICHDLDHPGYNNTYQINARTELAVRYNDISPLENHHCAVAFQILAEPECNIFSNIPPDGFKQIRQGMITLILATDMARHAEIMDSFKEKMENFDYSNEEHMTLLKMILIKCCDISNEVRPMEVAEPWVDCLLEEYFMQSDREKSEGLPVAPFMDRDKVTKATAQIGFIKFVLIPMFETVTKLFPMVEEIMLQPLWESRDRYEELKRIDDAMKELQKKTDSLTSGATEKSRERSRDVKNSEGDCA
READOUT_NAME: IC50 (µM)

[A] Cc1ncc(CN2C[C@@H](C)[C@H](c3nc4c(cnn4C4CCOCC4)c(=O)[nH]3)C2)cn1
[B] C[C@@H]1CN(Cc2ccc(F)cc2)C[C@H]1c1nc2c(cnn2C2CCOCC2)c(=O)[nH]1
[C] Cc1cnc(CN2C[C@@H](C)[C@H](c3nc4c(cnn4C4CCOCC4)c(=O)[nH]3)C2)cn1
In this exercise, place the 3 molecules in ascending sequence of their recorded IC50. Put the labels in the requested order and write them down.
B, A, C

----------
Assay: Basic dissociation constant, pKa of compound at 10 uM by UV/Vis spectroscopy
Type: physicochemical
READOUT_NAME: pKa at 10 µM

C[C@@H]1CN(Cc2ncccn2)C[C@H]1c1nc2c(cnn2C2CCOCC2)c(=O)[nH]1 6.8
C[C@@H]1CN(Cc2ncccn2)C[C@@]1(F)c1nc2c(cnn2C2CCOCC2)c(=O)[nH]1 5.6

----------
Assay: Acidic dissociation constant, pKa of compound at 10 uM by UV/Vis spectroscopy
Format: physicochemical
READOUT_NAME: pKa at 10 µM

C[C@@H]1CN(Cc2ncccn2)C[C@@]1(F)c1nc2c(cnn2C2CCOCC2)c(=O)[nH]1 8.4
C[C@@H]1CN(Cc2ncccn2)C[C@H]1c1nc2c(cnn2C2CCOCC2)c(=O)[nH]1 9.6
